Details: Crystal 1; DTA

| MOLECULE | UNITS SYMBOL | Normal melting temperature |
| --- | --- | --- |
| CCCC[N+]1(C)CCCCC1.O=S(=O)([O-])C(F)(F)F [1-butyl-1-methylpiperidinium trifluoromethanesulfonate] | °C | 36.00 |
| CCCCn1cc[n+](C)c1.O=S(=O)([O-])C(F)(F)F [1-butyl-3-methylimidazolium trifluoromethanesulfonate] | °C | 18.00 |
| CCN(C)CC.CS(=O)(=O)O [diethylmethylammonium methanesulfonate] | °C | 39.00 |
| CC[NH+](C)CC.O=S(=O)([O-])C(F)(F)F [diethylmethylammonium trifluoromethanesulfonate] | °C | -5.00 |
